This collection of values is drawn from paper PMC12292862.

Reported CRP values for a set of molecules
Tested on: CRP
Experiment: Serum CRP (ELISA) in carrageenan-injected rats
Format: in vivo, rat
Details: compounds 200 mg/kg i.p., indomethacin 10 mg/kg, mean ± SD
Marks after values point to notes of the source that are not given here.
MEASURED METRIC: CRP

INSERT INTO measurements (molecule, result_value) VALUES
  ('COc1ccc2c(c1)c(CC(=O)O)c(C)n2C(=O)c1ccc(Cl)cc1 [indomethacin, reference compound]', '6.23 ± 0.22 ^b ng/mL'),
  ('NC1=NC2(CCCCCC2)n2nc(C(=O)Nc3ccc(S(N)(=O)=O)cc3)nc2N1', '4.19 ± 0.28 ^b ng/mL'),
  ('CC1(C)CC(=O)CC2(C1)N=C(N)Nc1nc(C(=O)Nc3ccc(S(N)(=O)=O)cc3)nn12 (stereo not shown)', '3.02 ± 0.28 ^b ng/mL'),
  ('NC1=NC2(c3ccccc3Cc3ccccc32)n2nc(C(=O)Nc3ccc(S(N)(=O)=O)cc3)nc2N1', '2.20 ± 0.36 ^b ng/mL');
